Listed next: entries and their corresponding pEC50.
# System: picornaviruses (CVB1, HRV-A2, HRV-A23, EV-68)
# EXPERIMENTAL_DETAILS: Anti-picornavirus cytopathic effect (CPE) reduction assay on HeLa H1 cells
# Assay type: cell-based
# MEASUREMENT_CONDITIONS: Enterovirus B, HeLa H1, 48 h, HeLa H1 cells, 48 h, category from averaging the EC50 values from four picornaviruses (CVB1, HRV-A2, HRV-A23, EV68); read-out: EC50 values of the compounds determined in the anti-picornavirus assay
pEC50: −log10 of the molar value.

{"columns": ["MOLECULE", "pEC50"],
 "data": [
  ["O=CN(CC1CCOCC1)C(C(=O)C(=O)NCC1CC1)C1CC1 (centres unmarked)", "5.00 to 6.00"],
  ["CC(=O)NCCNC(=O)C(=O)C1CCC(=O)N1Cc1ccc(Cl)cc1 (centres unmarked)", "< 5.00"],
  ["CCC(NC(=O)c1ccncc1)C(=O)C(=O)NCC1CCCCC1 (centres unmarked)", "< 5.00"],
  ["COc1ccccc1N(C=O)CCC(=O)C(=O)NCc1cccc(Cl)c1", "5.00 to 6.00"],
  ["CC(C(=O)C(=O)NCC1CCCCC1)N(C(=O)CNS(C)(=O)=O)C1CCCCC1 (centres unmarked)", "< 5.00"]
]}

* * *

# System: picornaviruses (CVB1, HRV-A2, HRV-A23, EV-68)
# EXPERIMENTAL_DETAILS: Anti-picornavirus cytopathic effect (CPE) reduction assay on HeLa H1 cells
# Assay type: cell-based
# MEASUREMENT_CONDITIONS: Enterovirus B, HeLa H1, 48 h, HeLa H1 cells, 48 h, category from averaging the EC50 values from four picornaviruses (CVB1, HRV-A2, HRV-A23, EV68); read-out: EC50 values of the compounds determined in the anti-picornavirus assay
pEC50: −log10 of the molar value.
The reader will find reported pEC50 values listed item by item below.

{"columns": ["COMPOUND", "TARGET_OF_ASSAY", "pEC50"],
 "data": [
  ["CC(C)NC(=O)C(=O)C(C)OC1CCCCC1 (stereo not shown) [FP 125]", "picornaviruses (CVB1, HRV-A2, HRV-A23, EV-68)", "5.00 to 6.00"],
  ["COc1ccccc1N(C=O)C(C)C(=O)C(=O)NCc1cnccn1 (stereo not shown) [FP 104]", "picornaviruses (CVB1, HRV-A2, HRV-A23, EV-68)", "< 5.00"],
  ["CCCC(NC(=O)c1ccccc1)C(=O)C(=O)NCC1CC1 (stereo not shown) [FP 154]", "picornaviruses (CVB1, HRV-A2, HRV-A23, EV-68)", "5.00 to 6.00"],
  ["COc1ccccc1C(=O)NC(C)C(=O)C(=O)NCC1CC1 (stereo not shown) [FP 168]", "picornaviruses (CVB1, HRV-A2, HRV-A23, EV-68)", "5.00 to 6.00"],
  ["CCC(NC(=O)CN1CCCCC1)C(=O)C(=O)NCC1CCCCC1 (stereo not shown) [FP 213]", "picornaviruses (CVB1, HRV-A2, HRV-A23, EV-68)", "5.00 to 6.00"],
  ["O=C(NC1CC1)C(=O)C1N(Cc2ccccc2)C(=O)CC12CC2 (stereo not shown) [FP 345]", "picornaviruses (CVB1, HRV-A2, HRV-A23, EV-68)", "> 6.00"],
  ["CNC(=O)C(=O)C(C(C)C)N(C=O)Cc1ccccc1 (stereo not shown) [FP 197]", "picornaviruses (CVB1, HRV-A2, HRV-A23, EV-68)", "< 5.00"],
  ["O=C(N[C@@H]1C[C@@H]1F)C(=O)C1N(Cc2ccccc2)C(=O)CC12CC2 (stereo partly shown) [FP 346]", "picornaviruses (CVB1, HRV-A2, HRV-A23, EV-68)", "> 6.00"],
  ["CC(C)S(=O)(=O)N1CCC(NC(=O)C(=O)[C@H]2CCC(=O)N2Cc2ccccc2)CC1 [FP 323]", "picornaviruses (CVB1, HRV-A2, HRV-A23, EV-68)", "> 6.00"],
  ["O=C(NC1CCCC1)C(=O)[C@H]1CCC(=O)N1Cc1ccccc1 [FP 239]", "picornaviruses (CVB1, HRV-A2, HRV-A23, EV-68)", "> 6.00"]
]}

* * *

Quick reference for pEC50 among some compounds
# Test system: picornaviruses (CVB1, HRV-A2, HRV-A23, EV-68)
# EXPERIMENTAL_DETAILS: Anti-picornavirus cytopathic effect (CPE) reduction assay on HeLa H1 cells
# Type: cell-based
# MEASUREMENT_CONDITIONS: Enterovirus B, HeLa H1, 48 h, HeLa H1 cells, 48 h, category from averaging the EC50 values from four picornaviruses (CVB1, HRV-A2, HRV-A23, EV68); read-out: EC50 values of the compounds determined in the anti-picornavirus assay
pEC50: −log10 of the molar value.

{"columns": ["COMPOUND", "TARGET_OF_ASSAY", "pEC50"],
 "data": [
  ["COc1ccccc1N(C=O)C(C)C(=O)C(=O)NCc1ccncc1 (centres unmarked)", "picornaviruses (CVB1, HRV-A2, HRV-A23, EV-68)", "< 5.00"],
  ["O=C(NC1CC1)C(=O)C1CCC(=O)N1Cc1ccc(Cl)cc1F (centres unmarked)", "picornaviruses (CVB1, HRV-A2, HRV-A23, EV-68)", "5.00 to 6.00"],
  ["O=C(NCC1CC1)C(=O)C1CCC(=O)N1Cc1ccc(Cl)cc1 (centres unmarked)", "picornaviruses (CVB1, HRV-A2, HRV-A23, EV-68)", "> 6.00"],
  ["CC(C(=O)C(=O)NCC1CCCCC1)N(C=O)CC(F)(F)F (centres unmarked)", "picornaviruses (CVB1, HRV-A2, HRV-A23, EV-68)", "> 6.00"],
  ["CC(NC(=O)c1ccccc1)C(=O)C(=O)NCC1CCCC1 (centres unmarked)", "picornaviruses (CVB1, HRV-A2, HRV-A23, EV-68)", "5.00 to 6.00"]
]}

* * *

Parameter: pIC50. Scope: all listed entries.
Protein target, amino acids: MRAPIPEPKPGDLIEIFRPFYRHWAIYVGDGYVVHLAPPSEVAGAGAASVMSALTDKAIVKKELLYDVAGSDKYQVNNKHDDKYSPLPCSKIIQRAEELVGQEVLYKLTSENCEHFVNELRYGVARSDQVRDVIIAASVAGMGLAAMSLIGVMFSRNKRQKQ
pIC50: −log10 of the molar value.

{"columns": ["COMPOUND", "pIC50"],
 "data": [
  ["COc1ccccc1N(C=O)C(C)C(=O)C(=O)NCc1cccc(Cl)c1 (stereo not drawn)", "> 6.00"],
  ["COCCCN(C=O)C(CC(C)C)C(=O)C(=O)NCC1CC1 (stereo not drawn)", "> 6.00"],
  ["CCC(NC(=O)c1cccnc1)C(=O)C(=O)NCC1CCCCC1 (stereo not drawn)", "> 6.00"],
  ["O=C(NC1CCN(C(=O)NC2CCCC2)CC1)C(=O)[C@H]1CCC(=O)N1Cc1ccccc1", "> 6.00"],
  ["O=CN(CC1CCOCC1)C(C(=O)C(=O)NCC1CC1)C1CC1 (stereo not drawn)", "> 6.00"],
  ["O=C(NCC1CC1)C(=O)C1CCC(=O)N1Cc1ccc(Cl)cc1 (stereo not drawn)", "> 6.00"],
  ["CC(=O)NCCNC(=O)C(=O)C1CCC(=O)N1Cc1ccc(Cl)cc1 (stereo not drawn)", "5.00 to 6.00"],
  ["O=CN(Cc1ccccc1)[C@@H](Cc1c[nH]cn1)C(=O)C(=O)NCC1CCCCC1", "> 6.00"],
  ["C[C@H](CO)NC(=O)C(=O)C1CCC(=O)N1Cc1ccc(Cl)cc1 (stereo partly drawn)", "5.00 to 6.00"]
]}

* * *

As shown below, each of these molecules has a reported EC50 value.
# System: picornaviruses (CVB1, HRV-A2, HRV-A23, EV-68)
# EXPERIMENTAL_DETAILS: Anti-picornavirus cytopathic effect (CPE) reduction assay on HeLa H1 cells
# Type: cell-based
# MEASUREMENT_CONDITIONS: Enterovirus B, HeLa H1, 48 h, HeLa H1 cells, 48 h, category from averaging the EC50 values from four picornaviruses (CVB1, HRV-A2, HRV-A23, EV68); read-out: EC50 values of the compounds determined in the anti-picornavirus assay

{"columns": ["MOLECULE", "EC50"],
 "data": [
  ["CC(=O)N1CCC(CN(C=O)C(C)C(=O)C(=O)NCC2CCCCC2)CC1 (stereo not shown) [FP 79]", "> 10000 nM"],
  ["O=C(NCCc1cnccn1)C(=O)C1CCC(=O)N1Cc1ccccc1 (stereo not shown) [FP 227]", "1000 to 10000 nM"],
  ["CC(NC(=O)c1ccc(Cl)cc1)C(=O)C(=O)NCC1CC1 (stereo not shown) [FP 170]", "1000 to 10000 nM"],
  ["CC(C)(C)C(=O)N1CCC(NC(=O)C(=O)[C@H]2CCC(=O)N2Cc2ccccc2)CC1 [FP 314]", "1000 to 10000 nM"],
  ["O=C(NCC1CC1)C(=O)[C@H]1CCC(=O)N1Cc1ccccc1 [FP 224]", "< 1000 nM"],
  ["Cc1noc(CCNC(=O)C(=O)[C@H]2CCC(=O)N2Cc2ccccc2)n1 [FP 293]", "1000 to 10000 nM"],
  ["CC(C(=O)C(=O)NCC1CCCCC1)N(C)C(=O)c1ccccc1 (stereo not shown) [FP 176]", "< 1000 nM"],
  ["CC(NC(=O)c1ccccc1Br)C(=O)C(=O)NCC1CC1 (stereo not shown) [FP 166]", "1000 to 10000 nM"],
  ["CC(C(=O)C(=O)NCc1cccc(Cl)c1)N(C=O)CC(C)(C)C (stereo not shown) [FP 23]", "< 1000 nM"],
  ["CCCC(NC(=O)c1ccccc1)C(=O)C(=O)NC1CC1 (stereo not shown) [FP 184]", "> 10000 nM"]
]}
